# System: Escherichia coli TOP10;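 further: peptides expressed intracellularly from a pBAD plasmid library in pooled LB shake-flask culture, induced with 0.3% L-arabinose, DNA abundance read by NGS, three biological replicates, DESeq2 with apeglm shrinkage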
# assay_notes: shrunken log2 fold change of peptide-encoding DNA abundance (4.5 h post-induction vs induction); higher = less antimicrobial activity (less host growth inhibition)
# particulars: time post-induction: 4.5 h; library: site-saturation at positions 5, 18, 19, 20
measurement_label: shrunken log2 fold change

Sample answers from the record:
RRIRFRPPRLPRPRPRPCEHPRP :: -0.00783
RRIRGRPPRLPRPRPRPIVIPRP :: -0.227
RRIRERPPRLPRPRPRPYYLPRP :: -0.827

Query: Any idea what its shrunken log2 fold change is? The sequence is RRIRARPPRLPRPRPRPWNDPRP
Reply: -0.158

Query: # iterate: RRIRVRPPRLPRPRPRPRPCPRP
Reply: 0.322

Query: Let us now turn to RRIRWRPPRLPRPRPRPNSKPRP
Reply: -0.218

Query: Try this sequence next: RRIRGRPPRLPRPRPRPRREPRP
Reply: 0.381

Query: Please do the same for RRIRKRPPRLPRPRPRPIQVPRP as well.
Reply: -0.137

Query: Also check RRIRTRPPRLPRPRPRPQIWPRP
Reply: 0.0741

Query: Thanks! And RRIRQRPPRLPRPRPRPLTWPRP ?
Reply: -0.21

Query: Continue with RRIRQRPPRLPRPRPRPPYNPRP
Reply: -0.154

Query: Another sequence: RRIRQRPPRLPRPRPRPFCAPRP
Reply: 0.184

Query: Next sequence: RRIRIRPPRLPRPRPRPFRLPRP
Reply: -0.223

Query: Quick one: RRIRHRPPRLPRPRPRPGLEPRP
Reply: 0.00016
